- Experimental target: Dual specificity calcium/calmodulin-dependent 3',5'-cyclic nucleotide phosphodiesterase 1A (Human)
- Sequence (P54750 whole entry): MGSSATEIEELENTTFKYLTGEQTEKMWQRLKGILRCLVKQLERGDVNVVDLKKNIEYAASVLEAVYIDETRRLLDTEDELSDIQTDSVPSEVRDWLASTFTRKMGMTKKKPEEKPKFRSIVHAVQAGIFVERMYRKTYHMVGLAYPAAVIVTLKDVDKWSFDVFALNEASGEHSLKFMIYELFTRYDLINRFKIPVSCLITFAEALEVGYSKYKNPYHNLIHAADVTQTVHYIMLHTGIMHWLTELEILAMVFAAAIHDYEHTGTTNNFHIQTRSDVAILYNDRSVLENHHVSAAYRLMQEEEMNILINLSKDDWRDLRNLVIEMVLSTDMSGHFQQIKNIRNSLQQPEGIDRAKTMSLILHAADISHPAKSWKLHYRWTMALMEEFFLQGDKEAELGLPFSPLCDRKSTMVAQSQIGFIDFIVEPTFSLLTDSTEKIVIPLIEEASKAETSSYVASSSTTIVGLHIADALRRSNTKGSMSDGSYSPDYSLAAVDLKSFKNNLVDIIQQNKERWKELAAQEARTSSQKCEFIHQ
- Experiment description: Inhibition Assay
# IC50 per entry

[
  {
    "Structure notation": "CC1=NN(C(C)C)/C(=C(/C=C/c2cn(C)nc2C)NCc2cnn(C)c2)C1",
    "IC50 [nM]": 550
  },
  {
    "Structure notation": "COc1ncccc1/C=C/C(NCc1cnn(C)c1)=C1\\CC(C)=NN1C(C)C",
    "IC50 [nM]": 16
  },
  {
    "Structure notation": "CC1=NN(C(C)C)/C(=C(/C=C/c2ccccc2)NCc2cnn(C)c2)C1",
    "IC50 [nM]": 52
  },
  {
    "Structure notation": "CC1=NN(C(C)C)/C(=C(/C=C/c2cnn(C)c2C)NCc2cnn(C)c2)C1",
    "IC50 [nM]": 210
  },
  {
    "Structure notation": "CC1=NN(C(C)C)/C(=C(/C=C/c2ccsc2C)NCc2cnn(C)c2)C1",
    "IC50 [nM]": 7.9
  },
  {
    "Structure notation": "COc1ccccc1/C=C/C(NCc1cnn(C)c1)=C1\\CC(C)=NN1C(C)C",
    "IC50 [nM]": 64
  }
]
